Data origin, for the record: patent US20220025029A1

TESTED_SYSTEM: T1, natural Fel d1 (Indoor Biotech, #NA-FD1-2) (cat, UniProt P30438 23-92; P30440 18-109)
T1 construct: Bought natural heterodimeric glycoprotein, chains linked by disulfide bonds; also called nFel d1; nFel d 1
T1 sequence (P30438 other isoform, or with tags, fused parts or gaps, chain 1 of 2): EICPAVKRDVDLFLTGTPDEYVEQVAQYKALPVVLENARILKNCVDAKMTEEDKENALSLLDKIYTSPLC
T1 sequence (P30440 18-109, chain 2 of 2): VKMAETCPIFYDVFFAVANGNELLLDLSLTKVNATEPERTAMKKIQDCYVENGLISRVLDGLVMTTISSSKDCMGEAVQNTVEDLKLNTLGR
EXPERIMENTAL_DETAILS: SPR (Biacore), mAb captured, natural Fel d1 injected, 25 C;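 note: rate constants obtained by fitting association and dissociation phases to a one-to-one binding model, with Kd and half-life derived from those rate constants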
Rule: koff below 0.0009 s⁻¹ gives criterion met, anything at or above gives criterion not met.

BINDER	GROUP
H2M1233N (antibody, mouse IgG2, V domains shown, chimeric: human variable domains, mouse IgG2 Fc (H2M prefix)) VH: QVVLVESGGGVVQPGRSLRLSCAASGFTFSSYGMHWVRQAPGKGLEWVAVIWYDGSNKYYVDSVKGRFTISRDNSNNTIYLQMNSLRAEDTAVYYCARSLIPVAGTDPIFGYWGQGTLVTVSS VL: DIQMTQSPSTLSASVGDRVTITCRASQSVSSWLAWYQQKPGKAPKLLIFKASGLESGVPFRFSGSGSGTEFTLTISSLQPDDFATYYCQQYNTYSPTFGQGTKVEIK	criterion met
H2M1237N (antibody, mouse IgG2, V domains shown, chimeric: human variable domains, mouse IgG2 Fc (H2M prefix)) VH: QVVLVESGGGVVQPGRSLRLSCAASGFTFSSYGMHWVRQAPGKGLEWVAVIWYDGSIKYYADSVKGRFTISRDNSNNTIYLQMNSLRAEDTAVYYCARALIPVAGTDPIFGYWGQGTLVTVSS VL: DIQMTQSPSTLSASVGDRVTITCRASQSVSSWLAWYQQKPGKAPKLLIFKTSGLESGVPFRFSGSGSGTEFTLTISSLQPDDFATYYCQQYNTYSPTFGQGTKVEIK	criterion met
H4H2597B (antibody, human IgG4, V domains shown, human IgG4 Fc (H4H prefix)) VH: EVQLVESGGGLVQPGGSLRLSCAVSGFTFSNYAMNWVRQAPGKGLEWVSVISDSGRSTYYADSVKGRFTISRDNSKNTLYLQMNSLRAEDTAVYFCAKRYNWNLHYFDYWGQGTTVTVSS VL: EIVLTQSPDFQSVTPKEKVTITCRASQSIGGSLHWYQQKPDQSPKLLIKYASQSFSGVPSRFSGSGSGTDFTLTINSLEAEDAATYYCLQSSSLRTFGQGTKVEIKR	criterion not met
H4H2864P (antibody, human IgG4, V domains shown, human IgG4 Fc (H4H prefix)) VH: EVQLVESGGGLAQPGGSLRLSCAASGFTFNNYAMTWVRQAPGKGLDWVSAISDSGRSTFSADSVKGRFTISRDNSKNTLYLQMDSLRAEDTALYYCAKHRNWNYPVFDYWGQGTLVTVSS VL: DIQLTQSPSFLSASVGDRVTITCWASQGISSYLAWYQQKPGKAPKLLIYSASTLQSGVPSRFSGSGSGTEFTLTISSLQPEDFATYYCQQLNSYPFTFGPGTKVDIK	criterion not met
H4H2797P (antibody, human IgG4, V domains shown, human IgG4 Fc (H4H prefix)) VH: QVQLVESGGGVVLPGRSLRLSCAASGFTFSSYLMYWVRQAPGKGLEWVAVIWYDGSNKFYGDSVKGRFTISRDNSKNTLYLQMNSLRAEDTAVYYCARDNGNSGYEDSWNAFDIWGQGTMVTVSS VL: DIQMTQSPSSLSASVGDRVTITCRASQDIYNYLAWFQQKPGKAPKSLIYAASSLQTGVPSQFSGSGSGTDFTLTISSLQPEDFATYYCQQYNNYPFTFGPGTKVDIK	criterion not met
H4H1232N (antibody, human IgG4, V domains shown, human IgG4 Fc (H4H prefix)) VH: EVQLVESGGGLVKPGGSLRLSCAASGFTFRNYNINWVRQAPGKGLEWVSLISGSSSYIYYADSVKGRFTVSRDNAKNSLYLQMNSLRAEDTAVYYCARRTLSYYVMDVWGQGTTVTVSS VL: DIQVTQSPSPLSASVGDRVTITCRASQGISNYLAWYQQKPGRVPQLLIYAASTLQSGVPSRFSGSGSGTDFTLTISSLQPEDVATYYCQKYNSAPYTFGQGTKLEIK	criterion met
H4H2606B (antibody, human IgG4, V domains shown, human IgG4 Fc (H4H prefix)) VH: EVQLVESGGGLVKPGGSLRLSCAASGFTFSDYYMNWIRQAPGKGLEWVSYISSSGNSIYYADSVKGRFTISRDNAKNSLFLQMSSLRAEDTAVYYCARDGRYNDRRRGYYWGQGTLVTVSS VL: EIVMTQSPDFQSVTPKEKVTITCRASQSIGSSLHWYQQKPDQSPKLLIKYASQSFSGVPSRFSGSGSGTDFTLTINSLEAEDAATYYCLQSSSLRTFGQGTKVEIKR	criterion met
H2M1242N (antibody, mouse IgG2, V domains shown, chimeric: human variable domains, mouse IgG2 Fc (H2M prefix)) VH: EVQLVESGGGLVRPGGSLRLSCAASGFTFTSYAMNWVRQAPGKGLEWVSSISSYSSYIYIADSVKGRFTLSRDNAKNSLYLQMHSLRPEDTAVYFCAREGYSAYSYFDFWGRGTLVTVSS VL: DIQMTQSPSTLSASVGDRVTITCRASQSVISWLAWYQQKPGKAPKLLIHRASSLESGVPSRFSGSGSGTEFTLTISGLQPDDFATYYCQQYNTYFPTFGQGTKVEVK	criterion met
H4H1616N (antibody, human IgG4, V domains shown, human IgG4 Fc (H4H prefix)) VH: EVELLESGGGLVQPGGSLRLSCAASGFTFSSYAMSWVRQAPGKGLEWVSSISGRVGSTHFADSVKGRFTFSRDNSKNTLYLQLSSLRAEDTAVYYCARSRGAAYFDYWGQGTLVTVSS VL: DIQMTQSPSSLSASVGDRVTITCQANQDISNFLNWYQQRPGKAPNLLIYAASNLETGVPSRFSGSGSGTDFTFTISSLQPEDIATYYCQHYDNFPFTFGPGTKVDIK	criterion not met
